Attribution: paper PMC9182007

assay: HPLC on immobilized artificial membrane column (HPLCIAM); format: physicochemical; conditions: Table S5, retention factor, IAM column, phosphate buffer pH 7.4/acetonitrile 80:20
Returns the class for an entry based on its k IAM. Class ranges: label 0 (below 1), label 1 (1 to below 6), label 2 (6 or more)

q: Band for CSc1ccc2c(c1)N(CCC1CCCCN1C)c1ccccc1S2 (stereo not shown) ?
a: label 2

q: State the band of `Fc1ccc([C@@H]2CCNC[C@H]2COc2ccc3c(c2)OCO3)cc1`
a: label 2

q: Please report the category associated with `CC(C)C[C@H]1C(=O)N2CCC[C@H]2[C@]2(O)O[C@](NC(=O)[C@@H]3C=C4c5cccc6[nH]c(Br)c(c56)C[C@H]4N(C)C3)(C(C)C)C(=O)N12` , nothing else.
a: label 2

q: Which bin, given its k IAM, does `C[C@H]1O[C@@H](O[C@H]2[C@@H](O)C[C@H](O[C@H]3[C@@H](O)C[C@H](O[C@H]4CC[C@@]5(C)[C@H](CC[C@@H]6[C@@H]5C[C@@H](O)[C@]5(C)[C@@H](C7=CC(=O)OC7)CC[C@]65O)C4)O[C@@H]3C)O[C@@H]2C)C[C@H](O)[C@@H]1O` occupy?
a: label 1

q: Hello team, could you let me know which band the following compound falls into: `CN1CCC(=C2c3ccccc3CC(=O)c3sccc32)CC1`
a: label 2

q: Which band does COc1ccnc(C[S+]([O-])c2nc3ccc(OC(F)F)cc3[nH]2)c1OC (stereo not shown) fall in?
a: label 1

q: Please report the category associated with `Nc1nnc(-c2cccc(Cl)c2Cl)c(N)n1` , nothing else.
a: label 0

q: Into which category would you place `Cc1ncc2n1-c1ccc(Cl)cc1C(c1ccccc1F)=NC2` ?
a: label 1

q: Given CC(C)NCC(O)COc1cccc2ccccc12 (stereo not shown) , name the class its k IAM places it in.
a: label 2

q: Which category does the recorded k IAM put `CCCCC(=O)N(Cc1ccc(-c2ccccc2-c2nnn[nH]2)cc1)[C@H](C(=O)O)C(C)C` in?
a: label 0

q: Looking at `CC(=O)Nc1ccc(O)cc1` , which class would you pick?
a: label 0

q: Class (by measured k IAM) for `CCCCCOC(=O)Nc1nc(=O)n([C@@H]2O[C@H](C)[C@@H](O)[C@H]2O)cc1F`
a: label 1

q: Given NC(=O)N1c2ccccc2C=Cc2ccccc21 [carbamazepine] , name the class its k IAM places it in.
a: label 1

q: Class (by measured k IAM) for Cc1ccc(S(=O)(=O)NC(=O)NN2CC3CCCC3C2)cc1 (stereo not shown) [gliclazide]
a: label 0

q: Class? Entry: `C[C@](N)(Cc1ccc(O)c(O)c1)C(=O)O`
a: label 0
